- system under test: UniProt I6Y9J2
- measurement description: Fluorescence-based (fluorogenic probe 1) inhibition assay for LdtMt2
- Assay type: biochemical
- run conditions: read-out: IC50 (μM, mean ± SD) 60 min; LdtMt2 100 nM, probe 1 25 μM
observation type: IC50 (µM)
Numbers only; they are read as µM.

Problem: Look up IC50: NC(=O)CI [Compound 2, Iodoacetamide]
Result: 10.1

---

- system under test: LdtMt2 (Mycobacterium tuberculosis, UniProt I6Y9J2)
- Sequence (I6Y9J2 56-408): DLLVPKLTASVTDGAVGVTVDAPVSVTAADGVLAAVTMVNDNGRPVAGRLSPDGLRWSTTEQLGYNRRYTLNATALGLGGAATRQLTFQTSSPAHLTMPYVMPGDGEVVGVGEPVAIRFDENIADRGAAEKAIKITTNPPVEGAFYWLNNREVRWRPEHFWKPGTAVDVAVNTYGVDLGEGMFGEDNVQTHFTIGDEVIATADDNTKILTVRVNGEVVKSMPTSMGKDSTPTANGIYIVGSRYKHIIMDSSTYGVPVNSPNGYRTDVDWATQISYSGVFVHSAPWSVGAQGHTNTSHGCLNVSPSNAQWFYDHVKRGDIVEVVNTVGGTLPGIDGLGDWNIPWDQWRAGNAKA
- measurement description: Fluorescence-based (fluorogenic probe 1) inhibition assay for LdtMt2
- Assay type: biochemical
- run conditions: without pre-incubation prior to addition of fluorogenic probe 1; LdtMt2 100 nM, probe 1 25 μM; read-out: IC50 (μM, mean ± SD) 0 min
observation type: IC50
Number first, unit second: that is the form wanted.

Use these answered entries as a reference point.
Cl[Se]c1ccccc1 :: 62.8 µM
CN(C)C(=S)SSC(=S)N(C)C :: 7.01 µM

Problem: Look up IC50: `Br[Se]c1ccccc1`
Result: 11.8 µM

Problem: Look up IC50: CCC(C)SSc1ncc[nH]1 (centres unmarked)
Result: 27.2 µM

Problem: Look up IC50: NC(=O)CI [Compound 2, Iodoacetamide]
Result: 129 µM

Problem: Look up IC50: `c1ccc(SSc2ccccn2)nc1`
Result: 22.1 µM

Problem: Look up IC50: `O=c1c2ccccc2[se]n1-c1ccccc1`
Result: 0.36 µM

Problem: Look up IC50: `O=[Se](O)c1ccccc1`
Result: 309 µM

---

- system under test: LdtMt2 (Mycobacterium tuberculosis, UniProt I6Y9J2)
- measurement description: Fluorescence-based (fluorogenic probe 1) inhibition assay for LdtMt2
- Type: biochemical
- run conditions: IC50 (μM, mean ± SD) 0 min
observation type: IC50 (µM)
Numbers only; they are read as µM.

Problem: Look up IC50: O=C1C=CC(=O)N1 [Compound 3, Maleimide]
Result: 158

---

- system under test: LdtMt2 (Mycobacterium tuberculosis)
- measurement description: Fluorescence-based (fluorogenic probe 1) inhibition assay for LdtMt2
- Assay type: biochemical
- run conditions: IC50 (μM, mean ± SD) 60 min; LdtMt2 100 nM, probe 1 25 μM
List of log10 of IC50 values.
Recall that a logarithmic scale is used here: each number is log10 of IC50 in µM.

Use these answered entries as a reference point.
c1ccc(SSc2ccccn2)nc1 :: 0.21
CCC(C)SSc1ncc[nH]1 (stereo not shown) :: 0.39
CN(C)C(=S)SSC(=S)N(C)C :: -0.11
Cl[Se]c1ccccc1 :: 1.30

Problem: Look up log10 of IC50: `O=c1c2ccccc2[se]n1-c1ccccc1`
Result: -0.84

Problem: Look up log10 of IC50: `O=[Se](O)c1ccccc1`
Result: 1.97

Problem: Look up log10 of IC50: `Br[Se]c1ccccc1`
Result: 0.31

---

- system under test: LdtMt2 (Mycobacterium tuberculosis, UniProt I6Y9J2)
- measurement description: Fluorescence-based (fluorogenic probe 1) inhibition assay for LdtMt2
- Type: biochemical
- run conditions: IC50 (μM, mean ± SD) 10 min
observation type: IC50 (µM)
Numbers only; they are read as µM.

Problem: Look up IC50: O=C1C=CC(=O)N1 [Compound 3, Maleimide]
Result: 48.3
